Origin of values: patent US20110105397A1

# Assay Protocol: Human pharmacokinetics, healthy subjects, 7.5-hour continuous ascending dose IV infusion
# Format: in vivo
# Conditions Used: human, in vivo, healthy subjects, infusion rate 9/18/36 ng/kg/min, mean, N = 5

# Substance, Cmax [ng/mL]
rows = [
    ("H-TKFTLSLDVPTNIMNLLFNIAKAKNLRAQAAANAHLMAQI-NH2 [SEQ ID NO: 1]", 7.26),
]

###

# Assay Protocol: Human pharmacokinetics, healthy subjects, 24- or 72-hour infusion of 54 ng/kg/min
# Conditions Used: female, in vivo, 54 ng/kg, T1/2, effective
# Description: In healthy subjects following a 24- or 72-hour infusion of 54 ng/kg/min of h-SCP (SEQ ID NO:1) noncompartmental pharmacokinetic analyses were performed on plasma concentrations of h-SCP (SEQ ID NO:1).

# Substance, Quantity Unit, half-life
data = [
    ("H-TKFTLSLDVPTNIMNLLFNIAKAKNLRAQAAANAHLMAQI-NH2 [SEQ ID NO: 1]", "h", 5.84),
]

###

# Test System: CRHR1 (Homo sapiens, UniProt P34998)
# Sequence (P34998 24-415): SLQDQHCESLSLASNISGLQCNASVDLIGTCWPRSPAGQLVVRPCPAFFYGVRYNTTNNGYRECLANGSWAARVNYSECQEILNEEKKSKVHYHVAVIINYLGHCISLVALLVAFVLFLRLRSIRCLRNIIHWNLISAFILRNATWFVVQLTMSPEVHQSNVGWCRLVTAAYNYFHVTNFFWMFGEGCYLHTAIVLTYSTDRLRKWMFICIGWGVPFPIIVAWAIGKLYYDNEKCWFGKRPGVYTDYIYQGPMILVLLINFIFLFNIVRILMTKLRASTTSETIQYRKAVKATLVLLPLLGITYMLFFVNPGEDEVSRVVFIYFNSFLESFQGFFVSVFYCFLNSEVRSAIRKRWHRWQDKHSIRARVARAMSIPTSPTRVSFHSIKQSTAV
# Assay Protocol: CRHR1 radioligand binding, [125I]-(Tyr0)-sauvagine
# Set-up: host or cells: cell membranes
pKi: −log10 of the molar value.

# Substance, pKi
records = [
    ("H-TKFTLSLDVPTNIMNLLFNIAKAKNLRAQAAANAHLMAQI-NH2 [SEQ ID NO: 1]", 4.60),
]

###

# Assay Protocol: Human pharmacokinetics, healthy subjects, 7.5-hour continuous ascending dose IV infusion
# Type: in vivo
# Conditions Used: human, in vivo, healthy subjects, infusion rate 18/54/72 ng/kg/min, mean, N = 3

# Substance, Quantity Unit, Cmax
rows = [
    ("H-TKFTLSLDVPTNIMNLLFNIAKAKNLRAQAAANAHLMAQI-NH2 [SEQ ID NO: 1]", "ng/mL", 9.01),
]
